biological target: human ether-à-go-go-related gene (hERG) potassium channel (human, UniProt Q12809); assay: primary screen, population patch clamp on CHO cells stably expressing hERG; higher = less effect of the substance;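 further: peak tail current of the secondary pulse compared with the same well before compound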
Sequence (Q12809 whole entry, looked up): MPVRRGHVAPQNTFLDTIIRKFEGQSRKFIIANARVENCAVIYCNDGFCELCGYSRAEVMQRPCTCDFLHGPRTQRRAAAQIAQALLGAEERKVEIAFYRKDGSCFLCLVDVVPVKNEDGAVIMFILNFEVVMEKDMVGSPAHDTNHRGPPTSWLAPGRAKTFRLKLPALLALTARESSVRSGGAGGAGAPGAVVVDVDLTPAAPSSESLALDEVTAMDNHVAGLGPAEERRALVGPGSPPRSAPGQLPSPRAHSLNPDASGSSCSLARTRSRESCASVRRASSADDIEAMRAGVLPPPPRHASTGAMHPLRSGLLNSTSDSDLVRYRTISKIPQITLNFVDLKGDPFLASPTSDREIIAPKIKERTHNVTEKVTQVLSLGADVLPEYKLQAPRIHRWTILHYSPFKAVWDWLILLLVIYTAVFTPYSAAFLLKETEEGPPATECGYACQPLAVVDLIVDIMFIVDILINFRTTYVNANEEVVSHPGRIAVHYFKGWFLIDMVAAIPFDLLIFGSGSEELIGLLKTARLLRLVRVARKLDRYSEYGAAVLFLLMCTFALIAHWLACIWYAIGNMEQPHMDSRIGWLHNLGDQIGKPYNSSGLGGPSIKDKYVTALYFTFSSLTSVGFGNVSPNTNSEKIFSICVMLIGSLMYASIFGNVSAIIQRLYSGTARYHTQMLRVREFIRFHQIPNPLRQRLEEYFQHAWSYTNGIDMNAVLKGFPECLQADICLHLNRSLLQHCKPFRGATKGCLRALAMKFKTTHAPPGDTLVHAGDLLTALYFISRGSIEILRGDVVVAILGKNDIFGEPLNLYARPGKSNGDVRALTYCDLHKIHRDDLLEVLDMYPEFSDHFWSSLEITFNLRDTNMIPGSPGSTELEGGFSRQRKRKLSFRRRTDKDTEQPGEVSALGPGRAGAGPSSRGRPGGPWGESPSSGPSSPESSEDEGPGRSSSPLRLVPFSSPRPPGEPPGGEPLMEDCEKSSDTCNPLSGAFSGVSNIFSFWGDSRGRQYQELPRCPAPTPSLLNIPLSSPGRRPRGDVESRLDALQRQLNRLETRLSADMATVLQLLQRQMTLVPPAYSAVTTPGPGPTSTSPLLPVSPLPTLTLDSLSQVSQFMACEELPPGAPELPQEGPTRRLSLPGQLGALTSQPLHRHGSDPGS
In all, about 310,000 compounds went through this assay and about 14,000 (4.5%) showed an effect of 50% or more. Effects have a minus sign here. For the sample, strong results were picked, then their nearest neighbours and some compounds at random.
# reported hERG current change (%, negative = inhibition) at 10uM; entries follow
Property name: hERG current change (%, negative = inhibition) at 10uM (%)

# Molecule, Test result
data = [
    ("CCc1c(C)nc2ncnn2c1N1CCC(C(=O)Nc2cccc(C(C)=O)c2)CC1", -22.6),
    ("CCc1c(C)nc2ncnn2c1N1CCCC(C(=O)Nc2cc(F)ccc2C)C1 (stereo not shown)", -40.6),
    ("Cc1ccc(SCCC(=O)Nc2ccccc2Br)cc1", 12.8),
    ("CCOc1ccc(NC(=O)C2CCCN(c3c(CC)c(C)nc4ncnn34)C2)cc1 (stereo not shown)", -65.8),
    ("CCc1c(C)nc2ncnn2c1N1CCC(C(=O)NCc2cccs2)CC1", -44.4),
    ("COCc1[nH]nc2c1C(c1cccc(OC)c1)C(C#N)=C(N)O2 (stereo not shown)", -7.26),
    ("CCc1c(C)nc2ncnn2c1N1CCC(C(=O)Nc2ccccc2)CC1", -44.4),
    ("CCCCCn1nc(C)c(/C=N/NC(=O)c2ccoc2C)c1C", -43.8),
    ("CCOc1ccccc1NC(=O)C1CCCN(c2c(CC)c(C)nc3ncnn23)C1 (stereo not shown)", -65.1),
    ("O=C(C1CCN(c2ccc(N3CCOCC3)nn2)CC1)N1CCN(c2ccc(F)cc2)CC1", -47.4),
]
